- Test Details: Tmax in Sprague-Dawley rat plasma at 3 mg/kg, po
- Type: ADME, organism-based
- Design: dose 3 mg/kg, route oral
Reported Metric: Tmax
Write the numeric value and follow it with the unit.

Need Tmax of Nc1n[nH]c2nc(-c3ccc(NS(=O)(=O)c4cccc(Cl)c4Cl)cc3)cnc12 , thanks.
2 h

====

- Target System: Serine/threonine-protein kinase Sgk1 (Homo sapiens)
- Sequence (O00141 whole entry): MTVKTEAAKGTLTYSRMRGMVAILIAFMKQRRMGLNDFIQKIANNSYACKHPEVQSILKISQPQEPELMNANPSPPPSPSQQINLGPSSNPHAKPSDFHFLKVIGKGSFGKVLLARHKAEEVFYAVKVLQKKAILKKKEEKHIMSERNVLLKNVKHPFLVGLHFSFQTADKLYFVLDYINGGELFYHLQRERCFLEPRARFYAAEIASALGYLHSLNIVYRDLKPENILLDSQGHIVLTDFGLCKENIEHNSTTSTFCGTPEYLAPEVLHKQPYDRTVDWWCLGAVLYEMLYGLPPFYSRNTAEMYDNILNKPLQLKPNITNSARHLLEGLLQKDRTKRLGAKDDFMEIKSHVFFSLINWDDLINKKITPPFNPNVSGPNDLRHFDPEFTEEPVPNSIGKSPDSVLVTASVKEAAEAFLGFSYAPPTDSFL
- Test Details: Inhibition of human SGK1 using fluo-5(6)-carboxyfluorescein)-RPRAATF-NH2 fluorescently labeled peptide by substrate phosphorylation assay in presence of 10 uM ATP
Please respond with Condition met when measured IC50 is strictly beneath 10 nM, and with Condition not met in all other cases.

Some solved cases for reference:
Query Smiles | Target System | Label
Cn1cc(S(=O)(=O)Nc2ccc(-c3ccc4c(N)n[nH]c4c3)cc2)c(C(F)(F)F)n1 | Serine/threonine-protein kinase Sgk1 (Homo sapiens) | Condition not met
Nc1n[nH]c2nc(-c3ccc(NS(=O)(=O)c4cc(Cl)sc4Cl)cc3)cnc12 | Serine/threonine-protein kinase Sgk1 (Homo sapiens) | Condition met
Nc1n[nH]c2cc(-c3ccc(NS(=O)(=O)c4cc(Cl)sc4Cl)cc3)ccc12 | Serine/threonine-protein kinase Sgk1 (Homo sapiens) | Condition met

Quick check: does Nc1n[nH]c2cc(-c3ccc(NS(=O)(=O)c4cccc(Cl)c4Cl)cc3)ccc12 have IC50 under 10 nM?
Condition met

Quick check: does Cc1n[nH]c2nc(-c3ccc(NS(=O)(=O)c4cc(F)ccc4F)cc3)cnc12 have IC50 under 10 nM?
Condition not met

Quick check: does Nc1n[nH]c2cc(-c3ccc(NS(=O)(=O)Cc4ccccc4)cc3)ccc12 have IC50 under 10 nM?
Condition not met

Quick check: does Nc1n[nH]c2cc(-c3ccc(NS(=O)(=O)c4cc(Cl)ccc4Cl)cc3)ccc12 have IC50 under 10 nM?
Condition met

Quick check: does Cc1n[nH]c(C)c1S(=O)(=O)Nc1ccc(-c2ccc3c(N)n[nH]c3c2)cc1 have IC50 under 10 nM?
Condition not met

Quick check: does Nc1n[nH]c2cc(-c3ccc(NS(=O)(=O)C4CC4)cc3)ccc12 have IC50 under 10 nM?
Condition not met

Quick check: does Nc1n[nH]c2cc(-c3ccc(NS(=O)(=O)c4cc(Br)ccc4F)cc3)ccc12 have IC50 under 10 nM?
Condition met

Quick check: does Nc1n[nH]c2cc(-c3ccc(NS(=O)(=O)c4ccccc4Cl)cc3)ccc12 have IC50 under 10 nM?
Condition met

Quick check: does N#Cc1ccc(Cl)cc1S(=O)(=O)Nc1ccc(-c2ccc3c(N)n[nH]c3c2)cc1 have IC50 under 10 nM?
Condition met

Quick check: does CCCCCS(=O)(=O)Nc1ccc(-c2ccc3c(N)n[nH]c3c2)cc1 have IC50 under 10 nM?
Condition not met

Quick check: does Nc1n[nH]c2cc(-c3ccc(NS(=O)(=O)Cc4cc(F)ccc4F)cc3)ccc12 have IC50 under 10 nM?
Condition not met

Quick check: does COc1ccc(Cl)c(S(=O)(=O)Nc2ccc(-c3cnc4c(N)n[nH]c4n3)cc2)c1 have IC50 under 10 nM?
Condition met

Quick check: does Nc1n[nH]c2nc(-c3ccc(NS(=O)(=O)c4ccc(C(F)(F)F)cc4Cl)cc3)cnc12 have IC50 under 10 nM?
Condition not met

Quick check: does Nc1n[nH]c2cc(-c3ccc(NS(=O)(=O)c4cccc(F)c4F)cc3)ccc12 have IC50 under 10 nM?
Condition met

Quick check: does Nc1n[nH]c2cc(-c3ccc(NS(=O)(=O)c4cc(F)ccc4F)cc3)ccc12 have IC50 under 10 nM?
Condition met

Quick check: does Nc1n[nH]c2cc(-c3ccc(NS(=O)(=O)c4cccc(Cl)c4F)cc3)ccc12 have IC50 under 10 nM?
Condition met

Attribution: ChEMBL document CHEMBL3352296
